Recorded values, source the kinase profiling compilation of Christmann-Franck et al. (2016).

Known per cent of control of a selection of compounds
TGT: FLT1 (human) (UniProt P17948)
Sequence (P17948 whole entry, looked up): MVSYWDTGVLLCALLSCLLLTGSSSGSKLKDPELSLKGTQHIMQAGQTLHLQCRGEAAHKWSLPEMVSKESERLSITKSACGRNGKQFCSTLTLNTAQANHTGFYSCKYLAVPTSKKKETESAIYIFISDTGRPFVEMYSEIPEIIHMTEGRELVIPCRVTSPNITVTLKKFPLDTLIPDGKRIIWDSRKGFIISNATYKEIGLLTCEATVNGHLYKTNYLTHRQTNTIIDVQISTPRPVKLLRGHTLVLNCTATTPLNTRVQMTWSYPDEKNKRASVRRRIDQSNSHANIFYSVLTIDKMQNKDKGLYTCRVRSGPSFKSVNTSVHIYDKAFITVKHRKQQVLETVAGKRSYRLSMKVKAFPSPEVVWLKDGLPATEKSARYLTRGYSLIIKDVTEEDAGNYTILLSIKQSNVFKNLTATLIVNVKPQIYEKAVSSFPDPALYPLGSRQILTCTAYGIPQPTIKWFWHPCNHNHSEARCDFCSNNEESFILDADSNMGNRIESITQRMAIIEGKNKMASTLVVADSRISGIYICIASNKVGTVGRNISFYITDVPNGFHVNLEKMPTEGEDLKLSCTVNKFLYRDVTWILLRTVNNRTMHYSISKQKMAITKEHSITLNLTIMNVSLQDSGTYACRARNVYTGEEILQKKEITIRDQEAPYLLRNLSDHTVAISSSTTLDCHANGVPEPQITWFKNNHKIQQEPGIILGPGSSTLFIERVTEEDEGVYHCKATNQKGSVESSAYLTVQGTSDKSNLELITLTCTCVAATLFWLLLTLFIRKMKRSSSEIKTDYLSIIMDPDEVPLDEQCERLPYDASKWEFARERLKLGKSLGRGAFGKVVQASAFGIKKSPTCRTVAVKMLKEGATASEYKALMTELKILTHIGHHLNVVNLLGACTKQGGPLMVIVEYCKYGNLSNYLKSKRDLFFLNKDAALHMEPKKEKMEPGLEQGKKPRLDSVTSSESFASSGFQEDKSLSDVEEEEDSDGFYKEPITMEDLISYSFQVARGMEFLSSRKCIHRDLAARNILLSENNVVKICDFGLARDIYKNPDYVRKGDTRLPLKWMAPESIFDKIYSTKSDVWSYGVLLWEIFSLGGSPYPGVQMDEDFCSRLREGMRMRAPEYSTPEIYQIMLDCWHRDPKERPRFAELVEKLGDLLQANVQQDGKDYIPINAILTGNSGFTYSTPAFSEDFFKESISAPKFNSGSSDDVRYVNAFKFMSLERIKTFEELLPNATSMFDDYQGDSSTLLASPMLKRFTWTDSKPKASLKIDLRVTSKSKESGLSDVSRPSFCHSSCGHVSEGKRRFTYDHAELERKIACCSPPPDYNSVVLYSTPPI
CONDITION INFO: compound 10.0 µM
Number in %, nothing else.

Some solved cases for reference:
CC(C)n1nc(-c2cc3cc(O)ccc3[nH]2)c2c(N)ncnc21; 2
COc1ccc(-c2ccc3c(N4CCOCC4)nc(N4C[C@@H](C)O[C@@H](C)C4)nc3n2)cc1CO; 92
COC(=O)Nc1ccc(-c2nc(N3CCOCC3)c3cnn(C4CCN(C(=O)OC)CC4)c3n2)cc1; 88

Note: attention shifts to another entry.
Exam item: Need per cent of control of CCC(=O)N1CCN(c2ccc(-n3c(=O)ccc4cnc5ccc(-c6cnc7ccccc7c6)cc5c43)cc2C(F)(F)F)CC1 , thanks.
Marked response: 84

###

Record type: IC50 measurement. Applies to: PIK3C2A (human) (UniProt O00443)

COC(=O)Nc1ccc(-c2nc(N3CCOCC3)c3cnn(C4CCN(C(=O)OC)CC4)c3n2)cc1; > 10 µM
CC(C)n1nc(-c2cc3cc(O)ccc3[nH]2)c2c(N)ncnc21; 0.866 µM

Exam item: Need IC50 of COc1ccc(-c2ccc3c(N4CCOCC4)nc(N4C[C@@H](C)O[C@@H](C)C4)nc3n2)cc1CO , thanks.
Marked response: > 10 µM

###

Known kinase still bound, per cent of control of a selection of compounds
TGT: TRPM6 (human) (UniProt Q9BX84)
PROTOCOL DETAILS: KINOMEscan competition binding
CONDITION INFO: compound 10.0 µM
Note to self: number, then unit, no commentary.

Exam item: Need kinase still bound, per cent of control of COC(=O)Nc1ccc(-c2nc(N3CCOCC3)c3cnn(C4CCN(C(=O)OC)CC4)c3n2)cc1 , thanks.
Marked response: 100%

Exam item: Would you kindly repeat that for COc1ccc(-c2ccc3c(N4CCOCC4)nc(N4C[C@@H](C)O[C@@H](C)C4)nc3n2)cc1CO ?
Marked response: 50%

Exam item: Would you kindly repeat that for CC(C)n1nc(-c2cc3cc(O)ccc3[nH]2)c2c(N)ncnc21 ?
Marked response: 70%

Exam item: Would you kindly repeat that for CCC(=O)N1CCN(c2ccc(-n3c(=O)ccc4cnc5ccc(-c6cnc7ccccc7c6)cc5c43)cc2C(F)(F)F)CC1 ?
Marked response: 100%

###

TGT: MAP3K1 (human) (UniProt Q13233)
Sequence (Q13233 whole entry, looked up): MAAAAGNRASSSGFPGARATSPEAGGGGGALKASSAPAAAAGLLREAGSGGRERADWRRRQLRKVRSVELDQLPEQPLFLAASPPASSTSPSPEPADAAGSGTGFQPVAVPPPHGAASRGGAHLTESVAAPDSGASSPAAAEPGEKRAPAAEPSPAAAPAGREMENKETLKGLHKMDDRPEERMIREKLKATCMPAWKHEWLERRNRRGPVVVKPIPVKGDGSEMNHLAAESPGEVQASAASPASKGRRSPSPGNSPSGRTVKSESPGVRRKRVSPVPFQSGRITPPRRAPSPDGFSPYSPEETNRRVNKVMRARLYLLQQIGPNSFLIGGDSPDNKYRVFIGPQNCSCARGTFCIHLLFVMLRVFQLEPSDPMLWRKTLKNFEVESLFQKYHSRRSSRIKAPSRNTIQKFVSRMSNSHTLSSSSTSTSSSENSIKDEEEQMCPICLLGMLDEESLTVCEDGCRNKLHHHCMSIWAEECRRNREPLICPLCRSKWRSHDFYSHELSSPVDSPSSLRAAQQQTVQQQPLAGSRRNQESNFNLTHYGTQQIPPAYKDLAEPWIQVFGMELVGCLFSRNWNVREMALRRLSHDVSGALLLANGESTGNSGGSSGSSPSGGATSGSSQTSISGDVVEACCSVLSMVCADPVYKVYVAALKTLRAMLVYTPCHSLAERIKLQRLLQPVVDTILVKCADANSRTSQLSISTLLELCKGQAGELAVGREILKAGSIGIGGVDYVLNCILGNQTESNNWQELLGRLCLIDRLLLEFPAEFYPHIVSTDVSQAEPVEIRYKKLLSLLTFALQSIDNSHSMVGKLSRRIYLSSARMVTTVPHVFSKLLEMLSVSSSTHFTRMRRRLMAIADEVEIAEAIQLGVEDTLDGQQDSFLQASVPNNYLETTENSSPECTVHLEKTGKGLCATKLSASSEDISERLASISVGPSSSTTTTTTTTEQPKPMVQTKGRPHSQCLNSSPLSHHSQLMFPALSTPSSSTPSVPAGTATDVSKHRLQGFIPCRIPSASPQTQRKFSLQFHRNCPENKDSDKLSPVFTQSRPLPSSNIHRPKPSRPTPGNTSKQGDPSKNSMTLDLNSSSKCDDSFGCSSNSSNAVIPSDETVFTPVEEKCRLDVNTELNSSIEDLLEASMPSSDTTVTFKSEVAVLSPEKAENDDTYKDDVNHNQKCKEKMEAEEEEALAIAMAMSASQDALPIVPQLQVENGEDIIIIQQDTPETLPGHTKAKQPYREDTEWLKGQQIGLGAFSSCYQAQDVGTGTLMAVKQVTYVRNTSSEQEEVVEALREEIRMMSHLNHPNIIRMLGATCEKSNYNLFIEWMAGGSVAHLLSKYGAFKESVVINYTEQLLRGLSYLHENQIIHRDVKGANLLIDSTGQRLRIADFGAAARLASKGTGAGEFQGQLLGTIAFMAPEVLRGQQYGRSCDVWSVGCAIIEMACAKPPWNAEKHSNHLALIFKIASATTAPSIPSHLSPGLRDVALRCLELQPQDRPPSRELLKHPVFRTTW
PROTOCOL DETAILS: KINOMEscan competition binding
CONDITION INFO: compound 10.0 µM
Known kinase still bound, per cent of control of a selection of compounds
Number in %, nothing else.

Some solved cases for reference:
COc1ccc(-c2ccc3c(N4CCOCC4)nc(N4C[C@@H](C)O[C@@H](C)C4)nc3n2)cc1CO; 100
COC(=O)Nc1ccc(-c2nc(N3CCOCC3)c3cnn(C4CCN(C(=O)OC)CC4)c3n2)cc1; 94

Exam item: Need kinase still bound, per cent of control of CCC(=O)N1CCN(c2ccc(-n3c(=O)ccc4cnc5ccc(-c6cnc7ccccc7c6)cc5c43)cc2C(F)(F)F)CC1 , thanks.
Marked response: 92

Exam item: Would you kindly repeat that for CC(C)n1nc(-c2cc3cc(O)ccc3[nH]2)c2c(N)ncnc21 ?
Marked response: 45

###

Known kinase still bound, per cent of control of a selection of compounds
TGT: UniProt:P41743
Sequence (P41743 whole entry, looked up): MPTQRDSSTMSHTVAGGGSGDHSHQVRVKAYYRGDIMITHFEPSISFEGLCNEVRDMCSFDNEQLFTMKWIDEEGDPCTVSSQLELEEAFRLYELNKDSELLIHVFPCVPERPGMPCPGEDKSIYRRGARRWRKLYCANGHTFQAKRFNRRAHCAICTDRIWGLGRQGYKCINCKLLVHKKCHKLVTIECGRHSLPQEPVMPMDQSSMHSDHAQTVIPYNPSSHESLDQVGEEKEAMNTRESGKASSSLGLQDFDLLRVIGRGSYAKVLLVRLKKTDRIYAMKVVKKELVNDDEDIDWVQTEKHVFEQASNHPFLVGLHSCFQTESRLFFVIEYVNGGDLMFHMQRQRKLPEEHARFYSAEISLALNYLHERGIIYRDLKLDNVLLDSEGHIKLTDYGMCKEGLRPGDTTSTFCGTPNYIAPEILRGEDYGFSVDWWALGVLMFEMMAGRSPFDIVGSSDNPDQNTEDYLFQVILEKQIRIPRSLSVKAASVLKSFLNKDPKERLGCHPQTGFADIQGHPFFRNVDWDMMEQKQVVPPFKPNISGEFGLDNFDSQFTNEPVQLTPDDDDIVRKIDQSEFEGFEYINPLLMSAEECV
PROTOCOL DETAILS: KINOMEscan competition binding
CONDITION INFO: compound 10.0 µM
Number in %, nothing else.

Some solved cases for reference:
COC(=O)Nc1ccc(-c2nc(N3CCOCC3)c3cnn(C4CCN(C(=O)OC)CC4)c3n2)cc1; 100
CCC(=O)N1CCN(c2ccc(-n3c(=O)ccc4cnc5ccc(-c6cnc7ccccc7c6)cc5c43)cc2C(F)(F)F)CC1; 85
CC(C)n1nc(-c2cc3cc(O)ccc3[nH]2)c2c(N)ncnc21; 52

Note: attention shifts to another entry.
Exam item: Need kinase still bound, per cent of control of COc1ccc(-c2ccc3c(N4CCOCC4)nc(N4C[C@@H](C)O[C@@H](C)C4)nc3n2)cc1CO , thanks.
Marked response: 79
